# Test system: A673/TR/shEF
# PROTOCOL_SUMMARY: cell viability (LOESS-normalised, relative to median of negative controls) (log2 ratio); higher = more viable cells (less compound effect), active = hit call of the paper (over 3 MAD below the median)
# RUN_PARAMETERS: 2.5 µM; library screen: screen1; EWS-FLI1 expression: low (doxycycline-induced shRNA knockdown); treatment time: 72 h
Screen size: about 3,200 compounds; about 300 (9.4%) showed activity. The sample as a whole holds a higher share of actives than the screen did.
MEASURED_ATTRIBUTE: cell viability (log2)
Note: the reply should be a number with no unit written.

Example cases with answers are listed next.
O=C(O)CCCCCCCC(=O)O = 0.152
COc1ccc(OC)c(C2NC(=S)NC(C)=C2C(=O)Nc2ccccc2Cl)c1 (stereo not given) = 0.148
NCCCCCC(=O)O = 0.111

Tell me the measured cell viability (log2) of CC(=O)NCCCCCC(=O)O , please. 0.0704

Tell me the measured cell viability (log2) of CC(C)C[C@H](NC(=O)OCC1c2ccccc2-c2ccccc21)C(=O)O , please. -0.00318

* * *

# System: A673/TR/shEF
# PROTOCOL_SUMMARY: cell viability (LOESS-normalised, relative to median of negative controls) (log2 ratio); higher = more viable cells (less compound effect), active = hit call of the paper (over 3 MAD below the median)
# RUN_PARAMETERS: 0.308 µM; library screen: screen3; EWS-FLI1 expression: high (no doxycycline); treatment time: 72 h
Screen size: about 3,200 compounds; about 300 (9.4%) showed activity. Many of the other results were omitted from the sample, so actives are more common in it than they were.
# Lookup of reported cell viability (log2) keyed by entry

Example cases with answers are listed next.
COc1ccc(-c2ccc3c(N4CCOC[C@@H]4C)nc(N4CCOC[C@@H]4C)nc3n2)cc1CO = -0.621 (active)
CC(C)(O)[C@@H]1CC[C@](C)([C@H]2[C@@H](O)C[C@@]3(C)[C@@H]4C[C@H](O[C@@H]5O[C@H](CO)[C@@H](O)[C@H](O)[C@H]5O)[C@H]5C(C)(C)[C@@H](O[C@@H]6OC[C@@H](O)[C@H](O)[C@H]6O)CC[C@@]56C[C@@]46CC[C@]23C)O1 = 0.0588 (inactive)
CC1CC2C3CCC4=CC(=O)C=CC4(C)C3C(=O)CC2(C)[C@@]1(O)C(=O)CO (stereo not given in full) = 0.132 (inactive)

Tell me the measured cell viability (log2) of CC[C@@]1(O)C(=O)OCc2c1cc1n(c2=O)Cc2cc3c(CN(C)C)c(O)ccc3nc2-1 , please. -1.79 (active)

Tell me the measured cell viability (log2) of CNC(=O)CN(CCN(CCN(CC(=O)[O-])CC(=O)NC)CC(=O)[O-])CC(=O)[O-].O.[Gd+3] , please. 0.00861 (inactive)

* * *

# System: A673/TR/shEF
# PROTOCOL_SUMMARY: cell viability (LOESS-normalised, relative to median of negative controls) (log2 ratio); higher = more viable cells (less compound effect), active = hit call of the paper (over 3 MAD below the median)
# RUN_PARAMETERS: 0.25 µM; library screen: screen1; EWS-FLI1 expression: high (no doxycycline); treatment time: 72 h
In all, about 3,200 compounds went through this assay and about 300 (9.4%) showed activity. For the sample, actives were picked, then their nearest neighbours and some compounds at random.
MEASURED_ATTRIBUTE: cell viability (log2)
Note: the reply should be a number with no unit written.

C[C@@H](Oc1ccccc1)C(=O)N[C@@H]1C(=O)N2[C@@H]1SC(C)(C)[C@@H]2C(=O)O = 0.0816
Cn1cc(C2=C(c3cn(CCCSC(=N)N)c4ccccc34)C(=O)NC2=O)c2ccccc21 = -0.0731
COc1ccc(C2C3=C(CC(C)(C)CC3=O)OC3=C2C(=O)CC(C)(C)C3)cc1[N+](=O)[O-] = 0.06
NCC1OC(OC2C(N)CC(N)C(OC3OC(CO)C(O)C(N)C3O)C2O)C(N)C(O)C1O (centres undefined) = 0.0483
C[C@]12CCC3c4ccc(OC(=O)CCC(=O)O)cc4CCC3C1CCC2=O (some centres undefined) = 0.126

Form field - read-out: cell viability (log2); system: A673/TR/shEF; submitted item: Cc1ccccc1CN1CCN(Cc2ccco2)CC1 0.12

Form field - read-out: cell viability (log2); system: A673/TR/shEF; submitted item: O=C(O)c1ccc(OC2CSC2)cc1 -0.0489

Form field - read-out: cell viability (log2); system: A673/TR/shEF; submitted item: Cc1c(O)c(C(=O)CC(C)C)c2oc3c(C(=O)CC(C)C)c(O)c(C)c(O)c3c2c1O 0.0407

Form field - read-out: cell viability (log2); system: A673/TR/shEF; submitted item: COC(=O)c1c(C)c2c(c(C)c1OC)OC(=O)c1c(C)c(Cl)c(OC)c(Cl)c1O2 0.0616

Origin of the recorded values: the supplement of paper PMC6089552
